Recorded measurements of NADPH fluorescence slope, one per entry
biological target: Voltage-gated potassium channel subunit beta-2 (Rattus norvegicus) (UniProt P62483); experiment: enhancers of rat Kvbeta2 NADPH turnover – biochemical, NADPH fluorescence, primary screen (AID 623); conditions: Recombinant KvBeta, NADPH fluorescence decrease slope, 10 min; at 10 µM; stronger effect = lower value;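 note: fluorescence intensity change per second fitted from 20 to 320 s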
Sequence (P62483 whole entry, looked up): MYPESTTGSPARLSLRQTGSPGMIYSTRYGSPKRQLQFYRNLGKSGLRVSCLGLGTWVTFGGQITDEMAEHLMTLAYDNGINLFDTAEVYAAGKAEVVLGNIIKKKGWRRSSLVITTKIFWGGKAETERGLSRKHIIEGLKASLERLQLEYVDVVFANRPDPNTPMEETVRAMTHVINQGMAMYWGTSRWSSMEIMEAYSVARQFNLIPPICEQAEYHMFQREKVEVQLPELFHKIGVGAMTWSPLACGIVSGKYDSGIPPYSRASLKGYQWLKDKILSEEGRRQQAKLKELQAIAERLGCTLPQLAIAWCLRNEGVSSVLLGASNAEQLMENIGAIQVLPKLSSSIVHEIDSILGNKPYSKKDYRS
Reply: number alone, nothing else.

Cc1ccc(-n2c(C)cc3c2CCCC3=O)cc1
-7.7e-05
COCCCNC(=O)CSc1nc2ccc(N3CCOCC3)cc2c(=O)n1CCc1ccccc1
1.6e-05
COC(=O)CN(Cc1ccco1)S(=O)(=O)c1ccccc1
-5.1e-05
O=C(c1cccs1)N1CCc2ccccc21
-5e-05

Looking up CN/C=C1\C(=O)C(C)(C)Oc2ccc3ccc(=O)oc3c21 , I found its NADPH fluorescence slope recorded as -2.1e-05

Given item CCOC(=O)N1CCN(C(=O)COc2cc(=O)n(C)c3ccccc23)CC1 , the value recorded as its NADPH fluorescence slope is 4.1e-05

Record CC1=NC(Nc2nc(C)c3ccccc3n2)=NC(C)(C)C1 . Reported NADPH fluorescence slope: 6.6e-05

Sample CCOC(=O)CS(=O)(=O)c1nc(-c2ccccc2)cc(C(F)(F)F)n1 ; NADPH fluorescence slope observed: -1.5e-05

Notebook: CCOc1ccc(NC(=O)c2ccncc2)cc1 , NADPH fluorescence slope read as -4.7e-05

// NADPH fluorescence slope value for COC(=O)C1=CN(C(C)C)C=C(C(=O)OC)C1c1cc2c(cc1Br)OCO2 : 2e-05

Lab note: measured NADPH fluorescence slope of O=C(Nc1cc(C(F)(F)F)ccc1Cl)C1CCN(c2nnc(-n3cccc3)s2)CC1 was -5.6e-05

Lab note: measured NADPH fluorescence slope of CCn1c(SCC(=O)Nc2nc(C)cs2)nnc1-c1ccco1 was -2.7e-05

# compound CCCCOC(=O)Nc1nccs1 ; its NADPH fluorescence slope = -3.3e-05

get_value(item= O=c1c2nnn(Cc3ccc(Cl)cc3)c2ncn1Cc1ccc(F)cc1 , readout=NADPH fluorescence slope) returns -6.1e-05

// NADPH fluorescence slope lookup, compound = COC(=O)C1=C(C)OC(N)=C(C#N)C1c1ccccc1 (centres undefined) , result: -6.5e-06

In plain terms, OC(CN1CCOCC1)Cn1c(-c2cccc(Cl)c2)nc2ccccc21 (centres undefined) has a documented NADPH fluorescence slope of 1.9e-05

Reported NADPH fluorescence slope ( CCOC(=O)c1nnc2ccnn2c1N ) = -0.000165

The origin of these recorded values is PubChem BioAssay.
